The reported measurements were obtained from ChEMBL document CHEMBL3868602.

Assay: Cytotoxicity against human A549 cells harboring KRAS mutant assessed as apoptotic cells at 10 uM after 72 hrs by crystal violet staining based assay
Type: functional
Overview of recorded Activity for various compounds

Known results for compounds:
- Cn1ccc2ccc(/C=C3\CCc4ccc(Br)cc4C3=O)cc21: 26%
- O=C1/C(=C/c2ccc3[nH]ccc3c2)CCc2ccc(Br)cc21: 16%
- CC(=O)n1ccc2cc(/C=C3\CCc4ccc(F)cc4C3=O)ccc21: 28%

If you can, please state the reported Activity value of CCn1ccc2cc(/C=C3\CCc4cc(OC)c(OC)cc4C3=O)ccc21 .
19%

I have this compound here, Cn1ccc2cc(/C=C3\CCc4ccc(Br)cc4C3=O)ccc21 , and I need its recorded Activity.
21%
